# Tested on: HCC-2998 colon
# assayOverview: NCI-60 one-dose screen, 48 h
# testConditions: 10 µM unless noted
Compounds without any hit were thinned out: in the full panel of roughly 83,000, 20% have a hit. Activity calls are given as the source filed them. How the source made its calls: active means growth percent below 10; inactive means the rest.
Possible outcomes: active, inactive

1) COc1cc(-c2ccc[nH]2)[nH]c1/C=C1\N=C(C)C(CC(=O)OCC(C)(C)C)=C1C : active
2) CN1CCN(Cc2ccc(NC(=O)c3cncc(C#Cc4cnc(N)cc4C#N)c3)cc2C(F)(F)F)CC1 : inactive
3) C=CC(=O)Nc1cccc(Oc2nccc(Nc3nnc(-c4ccc(Br)cc4)s3)n2)c1 : inactive
4) O=C(Nc1ccccc1O)c1ccc(CNc2ccnc(C(F)(F)F)c2)cc1 : inactive
5) O=C(CSc1nnnn1-c1ccccc1)Nc1ccc(Oc2ccccc2)cc1 : inactive
6) COC12C=C/C(=C(/C(=O)OCCSc3ccnn3C)C(=O)CCCCCCCCC3(OC)C=C/C(=C(/C(=O)OCCSc4ccnn4C)C(=O)CCCCCCCC1)O3)O2 : active
7) COC1/C=C/OC2(C)Oc3c(C)c(O)c4c(O)c(c(/C=N/N(c5ccccc5)c5ccccc5)c(O)c4c3C2=O)NC(=O)C(C)=C/C=C/C(C)C(O)C(C)C(O)C(C)C(OC(C)=O)C1C (configuration not stated) : inactive
8) COc1cc(O)c2c(=O)c3c(CC=C(C)C)cc(OC)c(O)c3oc2c1 : inactive
9) O=C(Cn1nc(-c2cccc3ccccc23)ccc1=O)NCc1cccc(Cl)c1 : inactive
10) COc1ccc(NC(=O)c2ccc(Nc3ncnc4c3cnn4-c3cccc(F)c3)cc2)cc1 : inactive
11) NS(=O)(=O)c1ccc(C(=O)N=Nc2c(O)[nH]c3ccc(Cl)cc23)cc1 : inactive
12) COC12C=C/C(=C(/C(=O)OCc3csc(SC)n3)C(=O)CCCCCCCCC3(OC)C=C/C(=C(/C(=O)OCc4cnc(SC)s4)C(=O)CCCCCCCC1)O3)O2 (configuration not stated) : active
13) Cc1ccc(NC(=O)c2cc3ccccc3cc2O)c(C)c1 : inactive
14) Cc1ccc(S(=O)(=O)N2CCCN(c3nc(-c4ccccc4)nc4nc(-c5ccccc5)oc34)CC2)cc1 : inactive
15) CN1C(=O)/C(=C/c2ccc(C(=O)Nc3ncc(Cc4cccc(C(F)(F)F)c4)s3)cc2)SC1=S : inactive
16) O=C(C1=Cc2cc3ccccc3n2Cc2cnnn21)c1ccc(F)cc1 : inactive
17) O=C(Cc1ccc(/C=C/C(=O)c2ncc[nH]2)cc1)Nc1cc(F)c(F)c(F)c1 : inactive
18) CC(=O)O[C@H]1CC[C@]2(C)[C@H]3CC=C4[C@@H]5CC(C)(C)CC[C@]5(C(=O)N5CCN(CCC#N)CC5)CC[C@@]4(C)[C@]3(C)CC[C@H]2C1(C)C : inactive
19) O=CCCCOCc1ccccc1 : inactive
20) O=C(Nc1cccnc1Nc1ccccc1)c1cn(Cc2cccc(Oc3ccccc3)c2)nn1 : inactive
21) Cc1ccc(-c2csc(NC(=O)CSc3nc(N)cc(N)n3)n2)cc1 : inactive
22) c1cc(OCCN2CCCCC2)ccc1CNc1ccc2nc(CCC3CCCCC3)[nH]c2c1 : active
23) COc1ccc(N/N=C/c2cn(-c3ccc(C(=O)O)cc3)nc2-c2cc3ccccc3oc2=O)cc1 : inactive
24) O=C(/C=C/c1ccccc1Cl)c1cccc(OCCCCOc2cccc(C(=O)/C=C/c3ccccc3Cl)c2)c1 : inactive
25) O=C(c1c[nH]c2ccccc12)c1n[nH]c(=S)n1-c1ccc([N+](=O)[O-])cc1 : inactive
26) COc1cc(/C=N/NC(=O)c2ccc(-n3cc(-c4ccccc4)nn3)cc2)cc(OC)c1OC : inactive
27) Cc1nc([P+](c2ccccc2)(c2ccccc2)c2ccccc2)c(N2CCCCC2)o1 : inactive
28) COC(=O)c1ccc2cc(OC)c(OC)cc2c1 : inactive
29) O=C(c1cccc(N2CCOCC2)n1)c1c[nH]c2ccccc12 : inactive
30) COc1cc([C@@H](CCO)C[C@H](C)c2ccc3ccccc3c2)cc(OC)c1OC : inactive
31) CC1(/C=C/c2ccc(-c3ccccc3)cc2)CCn2cnc3ncnc(c32)N1O (configuration not stated) : inactive
32) COc1ccc(C2[C@@H](c3ccccc3)C(=O)N2c2cc(OC)c(OC)c(OC)c2)cc1F (some centres not stated) : inactive
33) O=C1c2cccnc2C(=O)c2c1c(C(=O)OCCc1ccccn1)c1ccccn21 : active
34) Nc1cc(C(=O)O)cc(-n2c(O)c(C=C3N=c4ccccc4=N3)sc2=S)c1 : inactive
35) O=C(Nc1cccnc1Nc1ccc(Cl)cc1)c1cn(Cc2cccc(Oc3ccccc3)c2)nn1 : inactive
36) C=C[C@@]1(C)CC(=O)[C@@H](C(C)(C)c2cn(C)c3ccc(Br)cc23)C[C@@H]1O[Si](C)(C)C(C)(C)C : inactive
37) Nc1[nH]nc2nc(-c3ccccc3)n3c4ccccc4nc3c12 : inactive

---

# Tested on: HCC-2998 colon
# assayOverview: NCI-60 one-dose screen, 48 h (100 = growth as untreated, 0 = no growth, -100 = all killed)
# testConditions: 10 µM unless noted
The panel holds about 83,000 compounds, 20% with a hit somewhere; the sample as a whole holds those more often.
measuredMetric: growth (%)

1. CCOC(=O)C1=C(CCl)N(C)C(=O)NC1c1ccc2c(c1)OCO2 (centres undefined) : 94.6
2. Cc1ccc2c(c1)nc(C)n2-c1ncnc2c1CC(C)c1cc(O)ccc1N2C (centres undefined) : 78.4
3. CCN1C(=O)N(CC)C2C1NN=c1s/c(=C\c3ccc(OC)cc3)c(=O)n12 (centres undefined) : 15.4
4. CCOC(=O)c1cnn(CC(C)O)c1NC(=O)NCc1cccc(F)c1 (centres undefined) : 94.9
5. C=C1C(=O)O[C@H]2[C@H]1CC/C(COC(=O)C(=O)c1c[nH]c3ccc(Cl)cc13)=C\CC[C@@]1(C)O[C@@H]21 : -75.9
6. Nc1c(C(=O)Nc2cccc3ncccc23)sc2nc3c(cc12)CN(Cc1ccccc1)CC3 : 93.5
7. CN1c2ccccc2S(=O)(=O)n2c(SCC(=O)Nc3nc4ccc(F)cc4s3)nnc21 : 128
8. COc1cc(C=Nc2oc(-c3ccccc3)c(-c3ccccc3)c2C#N)cc(CN2CCCC2)c1O : 111
9. CNC(=O)c1cc(Oc2ccc3c(c2)sc2nc(-c4ccc(NC(=O)[C@@H](NC(=O)OC)C(C)C)cc4)cn23)ccn1 : 93.4

---

Quick reference for growth among some molecules
# System: SK-MEL-2 melanoma
# assayOverview: NCI-60 one-dose screen, 48 h (100 = growth as untreated, 0 = no growth, -100 = all killed)
# testConditions: 10 µM unless noted
This is part of a sample that, as a whole, favours compounds with a hit. Of some 83,000 tested, about 20% had one in any assay.
measuredMetric: growth (%)

1. COc1cc(/C=C/c2cc(/C=C/c3ccc(O)c(OC)c3)n(C(=O)Nc3ccc(Cl)cc3)n2)ccc1O : -23.5
2. CC(C)CCC[C@@H](C)[C@H]1CC[C@H]2[C@@H]3CC=C4c5sc(Nc6cc(C(F)(F)F)cc(C(F)(F)F)c6)nc5CC[C@]4(C)[C@H]3CC[C@]12C : 124
3. CN(C)CCCC1(c2ccc(F)cc2)OCc2cc(-c3csc4ccccc34)ccc21 (stereo not drawn) : 62.6
4. COC(=O)c1sccc1-c1cc(O)c(C(=O)Nc2ccccc2)s1 : 104
5. COc1ccc(-c2cc(-c3cccnc3)nc3sc4c(N)c(C(C)=O)c(-c5ccccc5)nc4c23)cc1OC : 89.1
6. O=CN1N=C(c2cccc(Nc3ccnc4cc(Cl)ccc34)c2)CC1c1ccc(Cl)cc1 (stereo not drawn) : 9.56
7. COc1ccc2c(c1)CC[C@@H]1[C@@H]2CC[C@]2(C)C3C(=CC(COC(C)=O)C4C(=O)N(c5ccc(Cl)cc5)C(=O)C43)C[C@@H]12 (stereo partly drawn) : 108
8. O=S(O)c1cc(Cl)cc(Cl)c1OCc1ccccc1 : 105

---

# System: NCI/ADR-RES ovarian
# assayOverview: NCI-60 one-dose screen, 48 h (100 = growth as untreated, 0 = no growth, -100 = all killed)
# testConditions: 10 µM unless noted
This is part of a sample that, as a whole, favours compounds with a hit. Of some 83,000 tested, about 20% had one in any assay.
measuredMetric: growth (%)

1) Oc1ccc(-c2nc3ccc4[nH]ncc4c3c3c2CCCC3)c(F)c1 : 52
2) CCCc1cc(=O)oc2c(C(=O)CC(C)C)c(O)c(CC=C(C)C)c(O)c12 : 0.191
3) COC(=O)c1c(C)nc(C)c2c1C(=O)C=C(NCc1ccccc1)C2=O : 81.7
4) O=C1Nc2ccc(Cl)cc2/C1=C/c1ccc[nH]1 : 112
5) Cc1ccc2nc(-c3ccc(C(=O)N/N=C/c4ccc([N+](=O)[O-])cc4)cc3)[nH]c2c1 : 106
6) CCOC(=O)CNC1=C(Cl)C(=O)N(Cc2ccc(Cl)cc2)C1=O : 104
7) CCn1cc(C(=O)O)c(=O)c2cc(F)c(N3CCN(CC(=O)Nc4ccccc4)C(C)C3)c(F)c21 (stereo not given) : 96.7
8) N#Cc1c(-c2ccccc2)nc2c(c(-c3ccccc3)nn2-c2ccccc2)c1-c1ccc(N2CCCCC2)cc1 : 100
9) CCCC(=O)NC(c1ccc2c(c1)OCO2)c1cc(Cl)c2cccnc2c1O (stereo not given) : 1.56
10) CC(C)(C)c1ccc(C(=O)N/N=C/c2ccc(O)cc2O)cc1 : 5.92
